- TARGET_UNDER_TEST: T1, murine BACE1 ECD
- T1 construct: analyte of the Octet assay (200 nM) and enzyme of the first short substrate assay
- PROCEDURE_SUMMARY: Octet, pH 5.0, second run
For each record, write down the corresponding pKd.
Answers are plain numbers, as −log10 of the molar value.

# BINDER, MEASURED
data = [
    ("5887 (antibody, V domains shown, anti-BACE1 IgG) VH: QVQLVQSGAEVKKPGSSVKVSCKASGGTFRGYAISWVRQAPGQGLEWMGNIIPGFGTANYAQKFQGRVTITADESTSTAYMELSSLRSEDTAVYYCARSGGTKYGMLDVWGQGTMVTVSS VL: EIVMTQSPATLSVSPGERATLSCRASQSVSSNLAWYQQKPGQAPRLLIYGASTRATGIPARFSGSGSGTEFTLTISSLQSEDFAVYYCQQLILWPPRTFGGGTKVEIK", 8.74),
    ("5905 (antibody, V domains shown, anti-BACE1 IgG) VH: QLQLQESGPGLVKPSETLSLTCTVSGGSISWSSYYWSWIRQPPGKGLEWIGSIYRSGRTYYNPSLKSRVTISVDTSKNQFSLKLSSVTAADTAVYYCARVGHGISYFDLWGRGTLVTVSS VL: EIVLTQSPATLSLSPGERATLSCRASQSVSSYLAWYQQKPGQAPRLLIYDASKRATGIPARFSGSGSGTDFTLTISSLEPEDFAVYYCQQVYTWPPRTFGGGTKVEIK", 9.42),
]

Here's the next entry for you.
Give reported pKd value for 5896 (antibody, V domains shown, anti-BACE1 IgG) VH: QLQLQESGPGLVKPSETLSLTCTVSGGSISSSSYYWGWIRQPPGKGLEWIGSIYRSGSTYYNPSLKSRVTISVDTSKNQFSLKLSSVTAADTAVYYCARVGHGISYFDLWGRGTLVTVSS VL: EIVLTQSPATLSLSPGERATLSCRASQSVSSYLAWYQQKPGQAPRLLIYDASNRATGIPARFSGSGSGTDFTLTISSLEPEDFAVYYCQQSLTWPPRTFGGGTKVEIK
9.00
